- tgt: HLA-B*15:01
- assay-procedure: IEDB peptide-MHC binding, purified MHC/competitive/fluorescence; filed as Kd, often an IC50 or EC50 that approximates it; bounds were set here for any values at or beyond the usual limits of such assays
- measurement-parameters: source organism: Brucella melitensis bv. 1 str. 16M
measured-attribute: Kd

Kd for "AVGVVCTGL" is ≥ 20 µM

----------
- tgt: HLA-B*08:01
- assay-procedure: IEDB peptide-MHC binding, purified MHC/direct/fluorescence; filed as Kd, often an IC50 or EC50 that approximates it; bounds were set here for any values at or beyond the usual limits of such assays
- measurement-parameters: source organism: Bacillus anthracis str. Sterne
measured-attribute: pKd
Scale for pKd: -log10 of concentration given in mol/L; no unit attached.

pKd for "YMKERFTVL" is 7.82

----------
- tgt: HLA-B*08:01
- assay-procedure: IEDB peptide-MHC binding, purified MHC/direct/fluorescence; filed as Kd, often an IC50 or EC50 that approximates it; bounds were set here for any values at or beyond the usual limits of such assays
- measurement-parameters: source organism: Corynebacterium glutamicum
pKd: −log10 of the molar value.
measured-attribute: pKd

pKd for "FLPGQYMNI" is ≤ 4.70

----------
- tgt: HLA-A*30:02
- assay-procedure: IEDB peptide-MHC binding, purified MHC/competitive/radioactivity; filed as Kd, often an IC50 or EC50 that approximates it; bounds were set here for any values at or beyond the usual limits of such assays
- measurement-parameters: source organism: Mammarenavirus guanaritoense
measured-attribute: pKd
Scale for pKd: -log10 of concentration given in mol/L; no unit attached.

pKd for "CTLEGVWAPF" is 6.03

----------
- tgt: HLA-A*24:02
- assay-procedure: IEDB peptide-MHC binding, purified MHC/direct/fluorescence; filed as Kd, often an IC50 or EC50 that approximates it; bounds were set here for any values at or beyond the usual limits of such assays
- measurement-parameters: source organism: Entamoeba histolytica
pKd: −log10 of the molar value.
measured-attribute: pKd

pKd for "KLMPGSIYV" is ≤ 4.70

----------
- tgt: HLA-B*39:01
- assay-procedure: IEDB peptide-MHC binding, purified MHC/direct/fluorescence; filed as Kd, often an IC50 or EC50 that approximates it; bounds were set here for any values at or beyond the usual limits of such assays
- measurement-parameters: source organism: West Nile virus
measured-attribute: Kd

Tested on HLA-B*39:01, the item "TEGEGRVIL" showed Kd equal to ≥ 20 µM

----------
- tgt: HLA-A*33:01
- assay-procedure: IEDB peptide-MHC binding, purified MHC/competitive/radioactivity; filed as Kd, often an IC50 or EC50 that approximates it; bounds were set here for any values at or beyond the usual limits of such assays
- measurement-parameters: source organism: Dengue virus 2 Jamaica/1409/1983
measured-attribute: Kd (nM)
All answers are understood in nM, so give the number only.

A selection of reference data follows.
ELGKKKTPR ... 116
LMYFHRRDLR ... 17.3
TTFVTPMLR ... 5.67
YLWEVKKQR ... 65.4

Now consider the entry below.
Kd for "ITYKCPLLR" is 200

----------
- tgt: HLA-A*03:01
- assay-procedure: IEDB peptide-MHC binding, purified MHC/direct/fluorescence; filed as Kd, often an IC50 or EC50 that approximates it; bounds were set here for any values at or beyond the usual limits of such assays
- measurement-parameters: source organism: Yersinia pestis
measured-attribute: Kd

Kd for "VPRVHNQPQ" is ≥ 20 µM
